// merged dataset of IC50 values, system = Oxytocin receptor (Rattus norvegicus, UniProt P70536), multiple refs
Sequence (P70536 whole entry): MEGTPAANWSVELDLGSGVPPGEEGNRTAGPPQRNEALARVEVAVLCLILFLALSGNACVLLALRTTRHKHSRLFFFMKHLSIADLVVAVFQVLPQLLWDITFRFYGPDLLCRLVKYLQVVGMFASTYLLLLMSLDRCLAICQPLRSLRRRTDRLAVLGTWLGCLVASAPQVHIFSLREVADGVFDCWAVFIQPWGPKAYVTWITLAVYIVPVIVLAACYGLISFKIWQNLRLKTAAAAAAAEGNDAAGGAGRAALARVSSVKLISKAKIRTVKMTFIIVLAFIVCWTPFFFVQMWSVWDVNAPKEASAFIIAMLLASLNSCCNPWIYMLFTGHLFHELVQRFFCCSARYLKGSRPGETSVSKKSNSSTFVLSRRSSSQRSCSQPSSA
Kindly provide the numeric value in nM only, without the unit symbol.

Some solved cases for reference:
| COMPOUND | READOUT VALUE |
| --- | --- |
| COc1cc(NC(=O)c2ccccc2Cl)ccc1C(=O)N1CCCC(OCCNS(C)(=O)=O)c2cc(Cl)ccc21 (stereo not drawn) | 133 |
| Cc1c(F)cccc1C(=O)Nc1ccc(C(=O)N2Cc3cccn3Cc3ccccc32)c(Cl)c1 | 240 |
| CCN(CC)CCN(C)C(=O)CC1CCCN(C(=O)c2ccc(NC(=O)c3ccccc3Br)nc2)c2ccc(Cl)cc21 (stereo not drawn) | 350 |
| COc1cc(NC(=O)c2ccccc2Cl)ccc1C(=O)N1CCCC(CC(=O)NCCN(C)CCO)c2cc(Cl)ccc21 (stereo not drawn) | 84 |

// IC50 value for "CN(C)CN(C(=O)c1ccc(Cl)cc1Cl)c1ccc(C(=O)N2Cc3cccn3Cc3ccccc32)cc1" : 300

// IC50 value for O=C(Nc1ccc(C(=O)N2CCCC(CCN3CCOCC3)c3cc(Cl)ccc32)cn1)c1ccccc1Cl (stereo not drawn) : 680

// IC50 value for "O=Cc1ccc2n1Cc1ccccc1N(C(=O)c1ccc(NC(=O)c3ccc(Cl)cc3Cl)cc1)C2" : 2960

// IC50 value for "Cc1ccc(F)cc1C(=O)Nc1ccc(C(=O)N2Cc3sccc3Cc3ccccc32)cn1" : 1100

// IC50 value for "O=C(Nc1ccc(C(=O)N2Cc3ccc(CN4CCCC4)n3Cc3ccccc32)cc1)c1ccc(Cl)cc1Cl" : 1000

// IC50 value for "O=C(c1ccc(-c2cccs2)nc1)N1Cc2cccn2Cc2ccccc21" : 480
